Attribution: paper PMC9516332

molecular target: UniProt:Q05655; experiment: Kinase panel profiling at 1 µmol/L (MSA or IMAP), percentage inhibition; assay type: biochemical; conditions: kinase PKCδ; 1 µmol/L single concentration; read-out: %-inhibition at 1 µmol/L, PKCδ
Sequence (Q05655 whole entry): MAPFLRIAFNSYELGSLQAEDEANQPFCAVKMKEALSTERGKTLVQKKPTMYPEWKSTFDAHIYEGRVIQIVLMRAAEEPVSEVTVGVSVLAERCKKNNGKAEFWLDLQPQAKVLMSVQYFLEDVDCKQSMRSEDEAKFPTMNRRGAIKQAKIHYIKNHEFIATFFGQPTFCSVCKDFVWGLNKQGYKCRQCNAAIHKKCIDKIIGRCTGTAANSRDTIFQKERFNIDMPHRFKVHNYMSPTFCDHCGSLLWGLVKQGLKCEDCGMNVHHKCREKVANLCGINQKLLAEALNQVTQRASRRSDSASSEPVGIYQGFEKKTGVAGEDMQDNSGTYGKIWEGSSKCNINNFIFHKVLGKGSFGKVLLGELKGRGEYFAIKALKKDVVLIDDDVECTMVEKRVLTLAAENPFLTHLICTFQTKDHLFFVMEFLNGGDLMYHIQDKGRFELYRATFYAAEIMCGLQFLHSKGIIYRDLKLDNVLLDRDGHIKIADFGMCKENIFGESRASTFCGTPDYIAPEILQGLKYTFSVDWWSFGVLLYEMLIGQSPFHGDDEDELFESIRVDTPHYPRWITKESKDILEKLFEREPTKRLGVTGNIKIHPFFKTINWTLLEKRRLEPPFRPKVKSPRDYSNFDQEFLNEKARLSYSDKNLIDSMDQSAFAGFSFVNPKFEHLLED
Property Label: inhibition at 1 µM (%)

>>> observed_value("COc1ccc(CN2C3CC2CN(c2ccc(-c4cc(OCC(C)(C)O)cn5ncc(C#N)c45)cn2)C3)cn1")
-2
>>> observed_value("Cn1cc(-c2cc3c(N4CCN(c5ncc([C@@](C)(N)c6ccc(F)cc6)cn5)CC4)ncnn3c2)cn1")
5
>>> observed_value("FC(F)(F)c1ccc(CNc2ccc(Cc3c[nH]c4ncc(Cl)cc34)cn2)cn1")
6.48
>>> observed_value("C=CC(=O)N1CCC([C@@H]2CCNc3c(C(N)=O)c(-c4ccc(Oc5ccccc5)cc4)nn32)CC1")
-6
>>> observed_value("O=C(Nc1cnn2ccc(N3CCC[C@@H]3c3cc(F)ccc3F)nc12)N1CC[C@H](O)C1")
-5
>>> observed_value("COC(=O)N[C@@H](C)CNc1nccc(-c2cn(C(C)C)nc2-c2cc(Cl)cc(NS(C)(=O)=O)c2F)n1")
-2.67
>>> observed_value("Cn1cnc2c(F)c(Nc3ccc(Br)cc3F)c(C(=O)NOCCO)cc21")
-9
>>> observed_value("Cn1cnc2c(F)c(Nc3ccc(Br)cc3Cl)c(C(=O)NOCCO)cc21")
-4.35

====

target: panel of 255 wild-type kinases (Homo sapiens, UniProt O15264); assay: Kinase panel profiling at 1 µmol/L (MSA or IMAP), percentage inhibition; type: biochemical; details: p38δ; 1 µmol/L single concentration; read-out: %-inhibition, p38δ
Sequence (O15264 whole entry): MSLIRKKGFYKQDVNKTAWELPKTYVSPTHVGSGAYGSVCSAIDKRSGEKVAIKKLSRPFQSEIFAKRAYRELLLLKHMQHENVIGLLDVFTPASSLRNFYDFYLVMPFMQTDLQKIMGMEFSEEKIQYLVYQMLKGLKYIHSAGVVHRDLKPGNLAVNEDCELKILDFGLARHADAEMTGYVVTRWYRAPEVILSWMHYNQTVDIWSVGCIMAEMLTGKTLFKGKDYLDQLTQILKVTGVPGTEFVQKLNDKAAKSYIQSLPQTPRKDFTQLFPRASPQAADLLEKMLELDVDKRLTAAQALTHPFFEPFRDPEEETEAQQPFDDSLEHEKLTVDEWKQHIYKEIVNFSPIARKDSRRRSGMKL
Property Label: inhibition at 1 µM (%)

>>> observed_value("CCN1C(=O)N(c2c(F)c(OC)cc(OC)c2F)Cc2cnc3[nH]c(CN4CCOCC4)cc3c21 [pemigatinib]")
-6
>>> observed_value("COc1cc2ncnc(Nc3ccc(F)c(Cl)c3)c2cc1NC(=O)/C=C/CN1CCCCC1 [dacomitinib]")
0.0743
>>> observed_value("CCc1nc(C(N)=O)c(Nc2ccc(N3CCC(N4CCN(C)CC4)CC3)c(OC)c2)nc1NC1CCOCC1 [gilteritinib]")
1.74
>>> observed_value("Cc1cc(Nc2ncnc3ccc(NC4=NC(C)(C)CO4)cc23)ccc1Oc1ccn2ncnc2c1 [tucatinib]")
-0.0555
>>> observed_value("Cn1cc(-c2cc3c(N4CCN(c5ncc([C@@](C)(N)c6ccc(F)cc6)cn5)CC4)ncnn3c2)cn1 [avapritinib]")
0.654
>>> observed_value("C=CC(=O)N1CCC([C@@H]2CCNc3c(C(N)=O)c(-c4ccc(Oc5ccccc5)cc4)nn32)CC1 [zanubrutinib]")
-6.43
>>> observed_value("C[C@H]1Oc2cc(cnc2N)-c2c(nn(C)c2C#N)CN(C)C(=O)c2ccc(F)cc21 [lorlatinib]")
-3.52
>>> observed_value("Cn1cnc2c(F)c(Nc3ccc(Br)cc3Cl)c(C(=O)NOCCO)cc21 [selumetinib]")
-4

====

The following compounds are shown together with reported inhibition at 1 µM values.
target: panel of 255 wild-type kinases (Homo sapiens, UniProt Q13043); assay: Kinase panel profiling at 1 µmol/L (MSA or IMAP), percentage inhibition; type: biochemical; settings: MST1; 1 µmol/L single concentration; read-out: %-inhibition, MST1
Sequence (Q13043 whole entry): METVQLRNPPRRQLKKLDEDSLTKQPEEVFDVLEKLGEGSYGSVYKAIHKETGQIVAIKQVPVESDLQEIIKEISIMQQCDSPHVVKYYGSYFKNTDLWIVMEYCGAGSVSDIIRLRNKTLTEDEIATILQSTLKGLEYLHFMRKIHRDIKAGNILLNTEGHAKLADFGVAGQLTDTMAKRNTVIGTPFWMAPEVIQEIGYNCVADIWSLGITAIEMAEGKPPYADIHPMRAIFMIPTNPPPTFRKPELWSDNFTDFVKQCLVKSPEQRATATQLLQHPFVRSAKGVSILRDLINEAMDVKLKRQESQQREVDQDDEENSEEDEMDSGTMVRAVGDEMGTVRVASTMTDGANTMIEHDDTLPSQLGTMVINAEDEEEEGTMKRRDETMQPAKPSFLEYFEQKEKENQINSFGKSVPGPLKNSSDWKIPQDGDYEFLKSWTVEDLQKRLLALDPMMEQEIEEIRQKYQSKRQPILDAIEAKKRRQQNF
Property Label: inhibition at 1 µM (%)

>>> observed_value("Cn1cnc2c(F)c(Nc3ccc(Br)cc3F)c(C(=O)NOCCO)cc21")
-6.46
>>> observed_value("CO[C@]1(C(=O)N[C@@H](C)c2ccc(-n3cc(F)cn3)nc2)CC[C@H](c2nc(C)cc(Nc3cc(C)[nH]n3)n2)CC1")
19
>>> observed_value("C[C@H](Nc1ncnc2nc[nH]c12)c1cc2cccc(Cl)c2c(=O)n1-c1ccccc1")
10
>>> observed_value("CCc1nc(C(N)=O)c(Nc2ccc(N3CCC(N4CCN(C)CC4)CC3)c(OC)c2)nc1NC1CCOCC1")
92
>>> observed_value("Cc1cc(Nc2ncnc3ccc(NC4=NC(C)(C)CO4)cc23)ccc1Oc1ccn2ncnc2c1")
4
>>> observed_value("COC(=O)N[C@@H](C)CNc1nccc(-c2cn(C(C)C)nc2-c2cc(Cl)cc(NS(C)(=O)=O)c2F)n1")
0.835
>>> observed_value("C[C@H]1Oc2cc(cnc2N)-c2c(nn(C)c2C#N)CN(C)C(=O)c2ccc(F)cc21")
28
>>> observed_value("CCN1CCN(c2ccc(Nc3cc(N(C)C(=O)Nc4c(Cl)c(OC)cc(OC)c4Cl)ncn3)cc2)CC1")
1.11
>>> observed_value("Cn1cnc2c(F)c(Nc3ccc(Br)cc3Cl)c(C(=O)NOCCO)cc21")
-2.38
>>> observed_value("CN1CCN(c2ccc(C(=O)Nc3n[nH]c4ccc(Cc5cc(F)cc(F)c5)cc34)c(NC3CCOCC3)c2)CC1")
92
>>> observed_value("CCn1c(=O)c(-c2cc(NC(=O)Nc3ccccc3)c(F)cc2Br)cc2cnc(NC)cc21")
3
>>> observed_value("C=CC(=O)N1CCC([C@@H]2CCNc3c(C(N)=O)c(-c4ccc(Oc5ccccc5)cc4)nn32)CC1")
-3
>>> observed_value("COc1cc2ncnc(Nc3ccc(F)c(Cl)c3)c2cc1NC(=O)/C=C/CN1CCCCC1")
2.73
>>> observed_value("FC(F)(F)c1ccc(CNc2ccc(Cc3c[nH]c4ncc(Cl)cc34)cn2)cn1")
25
>>> observed_value("O=C(Nc1cnn2ccc(N3CCC[C@@H]3c3cc(F)ccc3F)nc12)N1CC[C@H](O)C1")
-4
